- method: Effect of Chrysin Alkylation on the Binding to PgP Cytosolic Domain.
- Assay type: ADME
# satisfied = Kd below 40 nM (exclusive); not satisfied = Kd at/above 40 nM

Answered examples (3):
# smiles_string, answer_label
data = [
    ("CC(C)Oc1c(C(C)C)c(O)c2c(=O)cc(-c3ccccc3)oc2c1C(C)C", "satisfied"),
    ("O=c1cc(-c2ccccc2)oc2c(Cc3ccccc3)c(O)c(Cc3ccccc3)c(O)c12", "satisfied"),
    ("O=c1cc(-c2ccccc2)oc2cc(O)c(Cc3ccccc3)c(O)c12", "not satisfied"),
]

Given `O=c1cc(-c2ccccc2)oc2cc(OCc3ccccc3)cc(O)c12` , is recorded Kd strictly lower than 40 nM?
not satisfied

Is Kd strictly under 40 nM for the entry `CC(C)Oc1cc2oc(-c3ccccc3)cc(=O)c2c(O)c1C(C)C` ?
not satisfied

Threshold test, Kd < 40 nM: `CC(C)=CCC/C(C)=C\Cc1c(O)cc2oc(-c3ccccc3)cc(=O)c2c1O`
not satisfied

----------
- method: Hydrophobicity index was determined in C18 reverse phase silica gel 20 * 20 cm plates in methanol:water (8:2).
- Assay type: ADME
experimental_readout: Hydrophobicity index
The reply should be a number, written without any unit.

Here are 5 molecules together with their reported answers.
# smiles_string, numeric_value
data = [
    ("O=c1cc(-c2ccccc2)oc2cc(OCc3ccccc3)cc(O)c12", 1.076),
    ("CC(C)c1c(O)cc2oc(-c3ccccc3)cc(=O)c2c1O", 0.608),
    ("O=c1cc(-c2ccccc2)oc2cc(O)c(Cc3ccccc3)c(O)c12", 0.754),
    ("CC(C)Oc1cc2oc(-c3ccccc3)cc(=O)c2c(O)c1C(C)C", 1.248),
    ("CC(C)=CCc1c(O)c(CC=C(C)C)c2oc(-c3ccccc3)cc(=O)c2c1O", 1.296),
]

Supply measured Hydrophobicity index of `CC(C)=CCc1c(O)cc2oc(-c3ccccc3)cc(=O)c2c1O` in your reply.
0.812

In one line, give reported Hydrophobicity index of the entry `CC(C)=CCc1c(O)cc(O)c2c(=O)cc(-c3ccccc3)oc12` .
0.853

Give the reported Hydrophobicity index for this molecule. `CC(C)Oc1cc(O)c2c(=O)cc(-c3ccccc3)oc2c1`
0.898

----------
- method: Partition coefficient (logP)
- Assay type: physicochemical
- experimental_context: octanol/water
experimental_readout: logP
Kindly provide the number alone.

# smiles_string, logP
measured = [
    ("CC(C)c1c(O)cc2oc(-c3ccccc3)cc(=O)c2c1O", 5.95),
]

Fill in reported logP for this entry: `CC(C)=CCc1c(O)c(CC=C(C)C)c2oc(-c3ccccc3)cc(=O)c2c1O`
6.56

Give the value of logP reported for the following: `CC(C)Oc1cc2oc(-c3ccccc3)cc(=O)c2c(O)c1C(C)C`
6.6

For the molecule `COc1cc(O)c2c(=O)cc(-c3ccccc3)oc2c1` , give its measured logP value.
6.06

Name the recorded logP of the molecule listed here: `CC(C)Oc1cc(O)c2c(=O)cc(-c3ccccc3)oc2c1`
6.24

Tell me its logP given `CC(C)=CCC/C(C)=C\Cc1c(O)cc2oc(-c3ccccc3)cc(=O)c2c1O` as the entry.
6.64

----------
- method: Hydrophobicity index was determined in C18 reverse phase silica gel 20 * 20 cm plates in methanol:water (8:2).
- Format: ADME
Items are presented alongside their recorded Hydrophobicity index.

Consider the worked cases shown below.
# compound, result
records = [
    ("COc1cc(O)c2c(=O)cc(-c3ccccc3)oc2c1 [TECHTOCHRYSIN]", 0.719),
    ("CC(C)=CCC/C(C)=C\\Cc1c(O)cc(O)c2c(=O)cc(-c3ccccc3)oc12", 1.35),
    ("O=c1cc(-c2ccccc2)oc2c(Cc3ccccc3)c(O)cc(O)c12", 0.754),
]

Identify measured Hydrophobicity index associated with `Cc1c(O)cc2oc(-c3ccccc3)cc(=O)c2c1O`
0.512

# return recorded Hydrophobicity index for entry `O=c1cc(-c2ccccc2)oc2c(Cc3ccccc3)c(O)c(Cc3ccccc3)c(O)c12`
1.06

Write down Hydrophobicity index measured for item `CC(C)Oc1c(C(C)C)c(O)c2c(=O)cc(-c3ccccc3)oc2c1C(C)C`
1.479
